- system: human orexin type 2 receptor (Homo sapiens, UniProt O43614)
- Construct: expressed in transfected cells
- Sequence (O43614 whole entry): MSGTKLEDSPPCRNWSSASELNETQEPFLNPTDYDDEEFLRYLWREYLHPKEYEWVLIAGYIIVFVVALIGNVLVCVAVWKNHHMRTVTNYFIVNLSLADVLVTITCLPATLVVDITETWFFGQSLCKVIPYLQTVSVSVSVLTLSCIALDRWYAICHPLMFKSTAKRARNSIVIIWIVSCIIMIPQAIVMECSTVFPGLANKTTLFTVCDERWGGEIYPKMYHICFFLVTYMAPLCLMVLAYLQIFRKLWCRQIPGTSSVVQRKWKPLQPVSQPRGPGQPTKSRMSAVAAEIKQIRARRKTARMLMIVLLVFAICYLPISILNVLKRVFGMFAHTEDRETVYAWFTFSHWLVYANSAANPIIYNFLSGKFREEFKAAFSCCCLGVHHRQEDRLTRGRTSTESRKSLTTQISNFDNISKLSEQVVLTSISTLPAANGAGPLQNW
- assay: Measurement of orexin type 2 receptor agonist activity (calcium indicator fluorescence, CHO cells forcibly expressing human OX2 receptor)
- Format: cell-based
- details: compound at 3 μM; 0% = DMSO, 100% = orexin A (human) 10 nM
quantity_measured: OX2R agonist activity (3 μM, %)
Numbers only; they are read as %.

CS(=O)(=O)N[C@@H]1[C@H](Cc2cccc(-c3cccc(Cl)c3F)c2F)N(C(=O)C2CCO2)CC1(F)F (stereo partly drawn) [Example 264] :: 98
CCS(=O)(=O)N[C@H]1[C@@H](F)CN(C(=O)C2CCO2)[C@H]1Cc1cccc(-c2cc(F)cc(F)c2)c1F (stereo partly drawn) [Example 304] :: 99
CCS(=O)(=O)N[C@@H]1[C@H](Cc2cccc(-c3cccc(C)c3)c2F)N(C(=O)N2CCC2)CC1(F)F :: 98
CN(C)C(=O)N1C[C@H](F)[C@H](NS(=O)(=O)C2CC2)[C@@H]1Cc1cccc(-c2cccc(F)c2)c1F :: 85
CCS(=O)(=O)N[C@H]1[C@@H](F)CN(C(=O)[C@H]2CCCO2)[C@H]1Cc1cccc(-c2cccc(F)c2F)c1F :: 107
CCS(=O)(=O)N[C@H]1[C@@H](F)CN(C(=O)C2CCO2)[C@H]1Cc1cccc(-c2ccc(F)c(C)c2)c1F (stereo partly drawn) :: 98
Cc1cccc(-c2cccc(C[C@H]3[C@@H](NS(=O)(=O)N(C)C)C(F)(F)CN3C(=O)C3CCO3)c2F)c1 (stereo partly drawn) [Example 434] :: 101
CCS(=O)(=O)N[C@@H]1[C@H](Cc2cccc(-c3cccc(F)c3)c2F)N(C(=O)C23CC(C2)C3)CC1(F)F :: 98

[Q] # get_value(readout='OX2R agonist activity (3 μM, %)', item= CS(=O)(=O)N[C@H]1[C@@H](F)CN(C(=O)C2CCO2)[C@H]1Cc1cccc(-c2cccc(Cl)c2)c1F (stereo partly drawn) )
[A] 86

[Q] # get_value(readout='OX2R agonist activity (3 μM, %)', item= CCS(=O)(=O)N[C@@H]1[C@H](Cc2cccc(-c3cccc(F)c3)c2F)N(C(=O)C2(O)CCC2)CC1(F)F )
[A] 83

[Q] # get_value(readout='OX2R agonist activity (3 μM, %)', item= CS(=O)(=O)N[C@@H]1[C@H](Cc2cccc(-c3cc(F)ccc3F)c2F)N(C(=O)C2CC(F)C2)CC1(F)F (stereo partly drawn) [Example 437] )
[A] 84

[Q] # get_value(readout='OX2R agonist activity (3 μM, %)', item= CC(C)C(=O)N1C[C@H](F)[C@H](NS(=O)(=O)C2CC2)[C@@H]1Cc1cccc(-c2cccc(F)c2)c1F )
[A] 102
